Source of measurements: PubChem BioAssay (NCI)

Known TGI of a selection of molecules
# Test system: TK-10 renal
# method.notes: NCI tumour cell line growth inhibition, 48 h

molecule="CC1C2CC=CC(=O)[C@@]2(C)CCC12OCCO2 (stereo partly specified)" reported_metric=TGI value="> 100 µM"
molecule=[CH3][Sn]([CH3])([CH3])[O][N+](=O)[O-] reported_metric=TGI value="> 10 µM"
molecule=O=C1CCCc2ccc3c(c21)CC1(Cc2ccccc2C1)C3 reported_metric=TGI value="> 100 µM"
molecule=CSc1ccc(C(=O)/C=C/c2ccccc2Cl)cc1 reported_metric=TGI value="41.5 µM"
molecule=O=c1oc2ccc3ccccc3c2cc1-c1nc2ccc([N+](=O)[O-])cc2o1 reported_metric=TGI value="> 78.6 µM"

QUERY: Fill in: TGI of Cc1cc2nc(N3C(=O)/C(=C/c4ccc(N(C)C)cc4)N=C3c3ccccc3)sc2cc1C is ___
RESULT: > 100 µM

QUERY: Fill in: TGI of Cn1c2ccccc2c2c(=O)n(CCCC(=O)OC(=NC3CCCCC3)NC3CCCCC3)c3c(-c4ccccc4)nnn3c21 is ___
RESULT: > 100 µM

QUERY: Fill in: TGI of O=C(N/N=C/C=C/c1ccc([N+](=O)[O-])o1)c1ccc(C(=O)N/N=C/C=C/c2ccc([N+](=O)[O-])o2)cc1 is ___
RESULT: > 69.7 µM

QUERY: Fill in: TGI of O=C1NC(=S)NC(=O)C1=C/C=C/c1ccc([N+](=O)[O-])cc1 is ___
RESULT: 22.5 µM
